B1: OR4K15 (parent)
chain: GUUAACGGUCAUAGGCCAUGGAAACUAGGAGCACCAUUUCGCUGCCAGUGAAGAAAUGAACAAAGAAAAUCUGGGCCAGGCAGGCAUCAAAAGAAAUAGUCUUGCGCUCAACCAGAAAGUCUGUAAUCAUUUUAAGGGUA

Variants of: B1
EXPERIMENT: self-cleavage, relative activity (ratio to wild type); higher = more cleavage; in vitro, sequencing; the parent is a self-cleaving ribozyme
Quick rule: self-cleavage of at least 1 means fulfilled, below that means not fulfilled.

A125G U132A; not fulfilled
A30C A59G; not fulfilled
U57A A90G; not fulfilled
U49A A98C; fulfilled
U108A A140C; not fulfilled

## Task Say whether A47G U139C shows self-cleavage of 1 or more.
## Result fulfilled

## Task Say whether A5C A56G shows self-cleavage of 1 or more.
## Result fulfilled

## Task Say whether C61A A91C shows self-cleavage of 1 or more.
## Result fulfilled

## Task Say whether A36U U70G shows self-cleavage of 1 or more.
## Result fulfilled

## Task Say whether A67U G106C shows self-cleavage of 1 or more.
## Result not fulfilled
